TARGET: Metabotropic glutamate receptor 1 (Rattus norvegicus)
Sequence (P23385 whole entry): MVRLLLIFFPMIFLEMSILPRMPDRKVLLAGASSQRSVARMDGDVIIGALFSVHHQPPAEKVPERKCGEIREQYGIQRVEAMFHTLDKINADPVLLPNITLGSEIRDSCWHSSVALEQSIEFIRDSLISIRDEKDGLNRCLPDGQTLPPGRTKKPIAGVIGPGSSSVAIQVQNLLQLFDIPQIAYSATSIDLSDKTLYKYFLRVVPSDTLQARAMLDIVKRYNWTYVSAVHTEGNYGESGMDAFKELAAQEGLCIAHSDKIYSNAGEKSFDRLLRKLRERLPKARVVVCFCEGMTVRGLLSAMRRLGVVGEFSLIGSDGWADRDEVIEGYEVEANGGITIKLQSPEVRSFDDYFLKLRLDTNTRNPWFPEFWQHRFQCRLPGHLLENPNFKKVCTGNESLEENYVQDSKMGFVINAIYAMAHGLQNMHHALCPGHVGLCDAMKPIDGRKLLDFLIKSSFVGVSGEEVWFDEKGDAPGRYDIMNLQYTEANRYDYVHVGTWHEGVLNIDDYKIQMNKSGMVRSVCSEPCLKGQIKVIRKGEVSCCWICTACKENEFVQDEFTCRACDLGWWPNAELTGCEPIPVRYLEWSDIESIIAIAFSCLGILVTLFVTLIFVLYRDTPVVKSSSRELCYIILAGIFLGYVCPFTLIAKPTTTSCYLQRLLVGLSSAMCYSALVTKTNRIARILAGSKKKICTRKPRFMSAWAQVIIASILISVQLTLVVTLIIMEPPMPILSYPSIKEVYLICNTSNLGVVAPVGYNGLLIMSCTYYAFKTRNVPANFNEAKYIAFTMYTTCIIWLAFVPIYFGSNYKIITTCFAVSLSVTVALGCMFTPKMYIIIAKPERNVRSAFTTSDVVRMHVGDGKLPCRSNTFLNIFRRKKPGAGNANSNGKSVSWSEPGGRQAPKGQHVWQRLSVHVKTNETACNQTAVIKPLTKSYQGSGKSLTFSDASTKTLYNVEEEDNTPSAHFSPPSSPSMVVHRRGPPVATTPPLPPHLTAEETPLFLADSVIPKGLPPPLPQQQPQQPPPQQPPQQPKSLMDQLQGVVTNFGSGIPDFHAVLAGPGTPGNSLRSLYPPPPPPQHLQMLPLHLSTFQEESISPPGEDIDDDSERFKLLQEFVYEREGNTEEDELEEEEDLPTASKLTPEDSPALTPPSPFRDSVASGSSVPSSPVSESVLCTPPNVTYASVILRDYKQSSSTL
ASSAY_ENDPOINT: pKi
Value format note: pKi is -log10 of concentration (mol/L); just state the number.

Prompt line: pKi for N[C@@]1(C(=O)O)C[C@@H]2ON=C(C(=O)O)[C@@H]2C1 (racemic) ?
Response line: 4.03

----------
TARGET: Metabotropic glutamate receptor 5 (Rattus norvegicus, UniProt P31424)
Sequence (P31424 whole entry): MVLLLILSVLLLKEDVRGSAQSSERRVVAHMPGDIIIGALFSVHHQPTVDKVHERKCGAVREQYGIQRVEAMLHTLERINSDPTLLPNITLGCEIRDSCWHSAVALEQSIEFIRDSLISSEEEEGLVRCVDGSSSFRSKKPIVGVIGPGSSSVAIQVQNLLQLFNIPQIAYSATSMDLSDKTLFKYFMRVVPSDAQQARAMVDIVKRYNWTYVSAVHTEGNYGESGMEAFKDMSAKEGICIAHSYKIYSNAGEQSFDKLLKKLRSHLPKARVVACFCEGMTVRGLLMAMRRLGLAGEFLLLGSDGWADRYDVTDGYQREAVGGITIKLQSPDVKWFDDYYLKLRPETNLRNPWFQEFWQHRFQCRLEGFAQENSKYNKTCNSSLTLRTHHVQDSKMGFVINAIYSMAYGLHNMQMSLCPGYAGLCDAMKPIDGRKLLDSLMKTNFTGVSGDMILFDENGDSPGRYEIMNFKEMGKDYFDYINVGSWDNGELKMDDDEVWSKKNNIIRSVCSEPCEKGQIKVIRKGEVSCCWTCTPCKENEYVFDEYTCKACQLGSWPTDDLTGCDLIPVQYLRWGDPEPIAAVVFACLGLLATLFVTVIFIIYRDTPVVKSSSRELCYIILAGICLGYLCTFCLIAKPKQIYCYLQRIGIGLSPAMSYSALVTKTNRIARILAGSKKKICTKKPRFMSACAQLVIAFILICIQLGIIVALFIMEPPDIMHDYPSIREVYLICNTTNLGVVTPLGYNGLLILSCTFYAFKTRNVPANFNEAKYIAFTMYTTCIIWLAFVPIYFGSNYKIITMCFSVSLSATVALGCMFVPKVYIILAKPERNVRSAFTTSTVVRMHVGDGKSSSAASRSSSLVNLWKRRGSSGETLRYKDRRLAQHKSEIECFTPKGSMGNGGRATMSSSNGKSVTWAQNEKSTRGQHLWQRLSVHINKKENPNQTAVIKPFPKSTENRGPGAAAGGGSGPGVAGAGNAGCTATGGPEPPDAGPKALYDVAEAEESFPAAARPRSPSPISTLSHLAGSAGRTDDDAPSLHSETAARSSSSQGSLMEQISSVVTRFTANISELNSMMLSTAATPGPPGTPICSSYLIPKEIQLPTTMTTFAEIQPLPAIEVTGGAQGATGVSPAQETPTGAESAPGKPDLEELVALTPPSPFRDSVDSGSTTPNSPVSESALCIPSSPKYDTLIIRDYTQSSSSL
ASSAY_ENDPOINT: Ki (µM)
API: value field is a number in µM; no unit string.

Prompt line: Ki for N[C@@]1(C(=O)O)C[C@@H]2ON=C(C(=O)O)[C@@H]2C1 (racemic) ?
Response line: 640

----------
TARGET: Metabotropic glutamate receptor 2 (Rattus norvegicus)
Sequence (P31421 whole entry): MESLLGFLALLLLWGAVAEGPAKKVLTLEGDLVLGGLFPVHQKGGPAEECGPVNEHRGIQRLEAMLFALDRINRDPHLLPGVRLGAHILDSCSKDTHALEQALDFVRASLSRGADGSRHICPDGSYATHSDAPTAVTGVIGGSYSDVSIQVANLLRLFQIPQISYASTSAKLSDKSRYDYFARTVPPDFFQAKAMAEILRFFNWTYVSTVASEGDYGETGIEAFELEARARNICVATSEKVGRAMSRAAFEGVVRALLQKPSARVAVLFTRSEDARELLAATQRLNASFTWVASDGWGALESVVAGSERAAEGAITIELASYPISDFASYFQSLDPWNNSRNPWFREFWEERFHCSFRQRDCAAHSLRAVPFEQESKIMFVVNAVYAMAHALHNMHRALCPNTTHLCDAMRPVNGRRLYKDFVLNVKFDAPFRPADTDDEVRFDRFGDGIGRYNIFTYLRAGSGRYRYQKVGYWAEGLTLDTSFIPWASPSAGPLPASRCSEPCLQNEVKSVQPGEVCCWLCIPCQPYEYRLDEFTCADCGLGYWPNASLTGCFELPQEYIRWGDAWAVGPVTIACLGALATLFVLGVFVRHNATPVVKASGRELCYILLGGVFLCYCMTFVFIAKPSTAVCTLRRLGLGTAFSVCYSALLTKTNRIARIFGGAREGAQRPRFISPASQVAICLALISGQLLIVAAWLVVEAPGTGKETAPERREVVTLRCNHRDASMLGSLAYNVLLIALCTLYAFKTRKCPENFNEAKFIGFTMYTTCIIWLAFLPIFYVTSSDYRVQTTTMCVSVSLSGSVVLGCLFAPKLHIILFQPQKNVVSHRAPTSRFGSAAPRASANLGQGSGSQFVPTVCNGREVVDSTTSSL
EXPERIMENTAL_PROTOCOL: Activity tested at cloned rat mGluR2 receptor expressed in Chinese Hamster Ovary (CHO) cells
ASSAY_ENDPOINT: EC50 (µM)
API: value field is a number in µM; no unit string.

N[C@@]1(C(=O)O)CC[C@@H](C(=O)O)C1 (racemic) = 2

Next:
Prompt line: Find the measured EC50: item N[C@]1(C(=O)O)C[C@@H]2ON=C(C(=O)O)[C@@H]2C1 (racemic) , target or system Metabotropic glutamate receptor 2 (Rattus norvegicus).
Response line: 16

----------
Measured IC50 of individual entries
TARGET: Glutamate NMDA receptor
EXPERIMENTAL_PROTOCOL: In vitro binding affinity for rat cortical membrane N-methyl-D-aspartate glutamate receptor determined using [3H]CPP as radioligand
API: value field is a number in nM; no unit string.

N[C@H](CCCP(=O)(O)O)C(=O)O = 880
N[C@@]1(C(=O)O)C[C@@H]2ON=C(C(=O)O)[C@@H]2C1 (racemic) = 490
N[C@@H](CCCP(=O)(O)O)C(=O)O = 29000

Prompt line: Find the measured IC50: item O=C(O)[C@H]1CN(C/C=C/P(=O)(O)O)CCN1 , target or system Glutamate NMDA receptor.
Response line: 40

----------
TARGET: Metabotropic glutamate receptor 4 (Rattus norvegicus, UniProt P31423)
Sequence (P31423 whole entry): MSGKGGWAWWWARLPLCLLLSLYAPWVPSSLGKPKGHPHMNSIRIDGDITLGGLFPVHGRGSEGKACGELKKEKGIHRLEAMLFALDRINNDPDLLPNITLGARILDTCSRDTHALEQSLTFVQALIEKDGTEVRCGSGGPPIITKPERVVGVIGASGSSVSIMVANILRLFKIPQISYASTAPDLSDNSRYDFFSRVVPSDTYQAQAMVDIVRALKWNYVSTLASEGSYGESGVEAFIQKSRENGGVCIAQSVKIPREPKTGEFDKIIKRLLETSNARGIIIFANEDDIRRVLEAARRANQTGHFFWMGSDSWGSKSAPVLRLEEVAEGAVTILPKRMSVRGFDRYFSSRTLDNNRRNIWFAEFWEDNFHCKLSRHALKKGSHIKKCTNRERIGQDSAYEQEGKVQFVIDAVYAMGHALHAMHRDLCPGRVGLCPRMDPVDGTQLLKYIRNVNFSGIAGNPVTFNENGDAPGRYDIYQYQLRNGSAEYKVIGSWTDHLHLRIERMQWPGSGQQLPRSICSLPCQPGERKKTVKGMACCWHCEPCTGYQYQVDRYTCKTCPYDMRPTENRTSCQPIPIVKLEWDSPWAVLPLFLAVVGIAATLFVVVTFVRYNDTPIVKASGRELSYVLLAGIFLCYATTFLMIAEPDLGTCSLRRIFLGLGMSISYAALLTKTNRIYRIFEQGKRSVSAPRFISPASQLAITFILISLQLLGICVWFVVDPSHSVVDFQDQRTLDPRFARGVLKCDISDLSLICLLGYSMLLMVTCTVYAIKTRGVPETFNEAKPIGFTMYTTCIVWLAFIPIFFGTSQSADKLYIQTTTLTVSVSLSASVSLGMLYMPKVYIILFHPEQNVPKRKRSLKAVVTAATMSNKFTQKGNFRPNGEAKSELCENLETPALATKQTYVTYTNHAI
ASSAY_ENDPOINT: Ki

Prompt line: Ki for N[C@]1(C(=O)O)C[C@@H]2ON=C(C(=O)O)[C@@H]2C1 (racemic) ?
Response line: > 1000 µM

----------
TARGET: Glutamate receptor ionotropic, AMPA (Rattus norvegicus, UniProt P19490+P19491+P19492+P19493)
EXPERIMENTAL_PROTOCOL: In vitro binding affinity for rat cortical membrane Ionotropic glutamate receptor AMPA determined using [3H]AMPA as radioligand
ASSAY_ENDPOINT: IC50

Prompt line: IC50 for N[C@@]1(C(=O)O)C[C@@H]2ON=C(C(=O)O)[C@@H]2C1 (racemic) ?
Response line: > 100 µM
